target.or.test.system: recombinant human mPGES-1 (Homo sapiens)
Construct: made in house; host or cells: Rosetta E. coli (microsomal/membrane fraction)
Sequence (O14684 1-152): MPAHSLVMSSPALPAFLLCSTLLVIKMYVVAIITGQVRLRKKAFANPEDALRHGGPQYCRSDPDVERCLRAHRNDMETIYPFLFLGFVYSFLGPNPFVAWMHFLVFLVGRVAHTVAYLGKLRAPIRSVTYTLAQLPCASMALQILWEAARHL
test.method.notes: mPGES-1 inhibition test (microsomes, PGH2 substrate, HTRF detection of PGE2)
Type: biochemical
measurement.conditions: inhibition of mPGES-1 at 10 μM
Experimental: Microsomes from Rosetta E. coli bacteria expressing recombinant human mPGES-1 is dissolved in 0.1 M KPi pH 7.4 buffer containing 2.5 mM GSH. 50 μl of the enzyme is subsequently dispensed in a 384-well plate. […] After over night incubation the fluorescence is measured by the use of an appropriate microplate reader. […] The extent of the specific FRET is measured as a ratio of the emission intensity at 665 nm vs. that at 620 nm. […]
quantity.measured: inhibition at 10 µM (%)
The answer is to be given in %; state only the numeric part.

INSERT INTO assay_data (compound, quantity_measured, reported) VALUES
  ('CS(=O)(=O)c1cccc(NC(=O)c2ccc3[nH]c(Nc4c(Cl)cccc4Cl)nc3c2)c1 [Example 224]', 'inhibition at 10 µM', 100),
  ('Cc1nc(NC(=O)c2ccc3[nH]c(Nc4c(Cl)cccc4Cl)nc3c2)cc2c1CCCC2 [Example 132]', 'inhibition at 10 µM', 97);

-- ask Give inhibition at 10 µM (recombinant human mPGES-1 (Homo sapiens)) of the following compound: CCOc1cc2[nH]c(Nc3c(Cl)ccc(Cl)c3F)nc2cc1C(=O)N[C@H]1CC[C@H](C(F)(F)F)CC1 [Example 599]
-- reply 92

-- ask Now consider COc1ccnc(NC(=O)c2ccc3[nH]c(Nc4c(Cl)cccc4Cl)nc3c2)c1 [Example 188] and answer again.
-- reply 96

====

target.or.test.system: recombinant human mPGES-1 (Homo sapiens, UniProt O14684)
Construct: made in house; host or cells: Rosetta E. coli (microsomal/membrane fraction)
test.method.notes: mPGES-1 inhibition test (microsomes, PGH2 substrate, HTRF detection of PGE2)
Format: biochemical
measurement.conditions: inhibition of mPGES-1 at 10 μM
quantity.measured: inhibition at 10 µM
# number then unit; no other words

INSERT INTO measurements (compound, target_or_test_system, reported) VALUES
  ('COc1cc2c(cc1C(=O)NCc1ncccc1C1CC1)nc(Nc1c(Cl)cccc1Cl)n2C', 'recombinant human mPGES-1 (Homo sapiens, UniProt O14684)', '100%'),
  ('Cn1c(Nc2c(Cl)cccc2Cl)nc2cc(C(=O)NC3COc4ccccc4C3)c(F)cc21 (centres unmarked)', 'recombinant human mPGES-1 (Homo sapiens, UniProt O14684)', '98%'),
  ('O=C(NC1CCC2(CC1)CC2)c1cc2nc(Nc3c(Cl)cccc3Cl)[nH]c2cc1F', 'recombinant human mPGES-1 (Homo sapiens, UniProt O14684)', '100%'),
  ('Cn1c(Nc2c(Cl)cccc2Cl)nc2cc(C(=O)NC3CCC4(CC3)CC4)ccc21', 'recombinant human mPGES-1 (Homo sapiens, UniProt O14684)', '95%'),
  ('Cc1cccnc1CNC(=O)c1cc2nc(Nc3c(Cl)cccc3Cl)n(C)c2cc1F', 'recombinant human mPGES-1 (Homo sapiens, UniProt O14684)', '99%');

-- ask Which inhibition at 10 µM value belongs to COc1cc2[nH]c(Nc3c(Cl)cccc3Cl)nc2cc1C(=O)NCc1ncccc1C ?
-- reply 100%

-- ask Now consider Cc1cccc(C)c1Nc1nc2cc(C(=O)Nc3ccc(Br)cc3)ccc2n1C and answer again.
-- reply 100%

-- ask Now consider O=C(NCC1CCCOC1)c1ccc2[nH]c(Nc3c(Cl)cccc3Cl)nc2c1 (centres unmarked) and answer again.
-- reply 77%

-- ask Now consider Cn1c(Nc2c(Cl)cccc2Cl)nc2cc(C(=O)NCCc3ccncc3)ccc21 and answer again.
-- reply 84%

-- ask Now consider Cc1ccccc1NC(=O)c1ccc2[nH]c(Nc3c(Cl)cccc3Cl)nc2c1 and answer again.
-- reply 95%

-- ask Now consider Cn1c(Nc2c(Cl)cccc2Cl)nc2cc(C(=O)Nc3cccc(Cl)c3)cc(Br)c21 and answer again.
-- reply 100%

====

target.or.test.system: recombinant human mPGES-1 (Homo sapiens)
Construct: made in house; host or cells: Rosetta E. coli (microsomal/membrane fraction)
test.method.notes: mPGES-1 inhibition test (microsomes, PGH2 substrate, HTRF detection of PGE2)
Format: biochemical
measurement.conditions: inhibition of mPGES-1 at 10 μM
Method: Microsomes from Rosetta E. coli bacteria expressing recombinant human mPGES-1 is dissolved in 0.1 M KPi pH 7.4 buffer containing 2.5 mM GSH. 50 μl of the enzyme is subsequently dispensed in a 384-well plate. […] After over night incubation the fluorescence is measured by the use of an appropriate microplate reader. […] The extent of the specific FRET is measured as a ratio of the emission intensity at 665 nm vs. that at 620 nm. […]
Entry flag: fulfilled if inhibition at 10 µM reaches 90%; not fulfilled if it does not.

Here are 3 compounds together with their reported answers.
INSERT INTO assay_data (compound, assigned_category) VALUES
  ('O=C(NC1CCC(F)(F)CC1)c1ccc2[nH]c(Nc3c(Cl)cccc3Cl)nc2c1', 'not fulfilled'),
  ('COc1cc2c(cc1C(=O)Nc1ccc(Br)cc1)nc(Nc1c(Cl)cccc1Cl)n2C', 'fulfilled'),
  ('CC(C)(C)CNC(=O)c1ccc2[nH]c(Nc3c(Cl)cccc3Cl)nc2c1', 'not fulfilled');

Continue with the compound presented below.
-- ask Record O=C(Nc1cc(C(F)(F)F)ccn1)c1ccc2[nH]c(Nc3c(Cl)cccc3Cl)nc2c1 ; criterion: inhibition at 10 µM no lower than 90%. Met?
-- reply fulfilled

====

target.or.test.system: recombinant human mPGES-1 (Homo sapiens, UniProt O14684)
Construct: made in house; host or cells: Rosetta E. coli (microsomal/membrane fraction)
test.method.notes: mPGES-1 inhibition test (microsomes, PGH2 substrate, HTRF detection of PGE2)
Format: biochemical
measurement.conditions: inhibition of mPGES-1 at 10 μM
quantity.measured: inhibition at 10 µM (%)
The answer is to be given in %; state only the numeric part.

Consider the following illustrative entries.
INSERT INTO measurements (compound, reported) VALUES
  ('Cn1c(Nc2c(Cl)cc(F)cc2Cl)nc2cc(C(=O)NC3CCC(C)(C)CC3)ccc21', 100),
  ('O=C(Nc1cc(Br)ccn1)c1ccc2[nH]c(Nc3c(Cl)cccc3Cl)nc2c1', 98),
  ('Cn1c(Nc2c(F)cccc2Cl)nc2cc(C(=O)NC3CCC(C(C)(C)C)CC3)c(F)cc21 (centres unmarked)', 100),
  ('CN(C)c1cccc(Cl)c1Nc1nc2cc(C(=O)Nc3ccc(Br)cc3)ccc2n1C', 100),
  ('Cn1c(Nc2ccc(F)cc2Cl)nc2cc(C(=O)Nc3ccc(Br)cc3)ccc21', 100);

-- ask Give inhibition at 10 µM (recombinant human mPGES-1 (Homo sapiens, UniProt O14684)) of the following compound: O=C(Nc1cc(Cl)ccn1)c1ccc2c(c1)nc(Nc1c(Cl)cccc1Cl)n2CCO
-- reply 98

-- ask Now consider COc1cc2[nH]c(Nc3c(Cl)cc(F)cc3Cl)nc2cc1C(=O)NCc1ncccc1C(F)(F)F and answer again.
-- reply 100

====

target.or.test.system: recombinant human mPGES-1 (Homo sapiens, UniProt O14684)
Construct: made in house; host or cells: Rosetta E. coli (microsomal/membrane fraction)
test.method.notes: mPGES-1 inhibition test (microsomes, PGH2 substrate, HTRF detection of PGE2)
Assay type: biochemical
measurement.conditions: inhibition of mPGES-1 at 10 μM
As shown below, each of these compounds has a reported inhibition at 10 µM value.
# number then unit; no other words

Consider the following illustrative entries.
INSERT INTO assay_data (compound, quantity_measured, reported) VALUES
  ('COc1cc2nc(Nc3c(Cl)cccc3Cl)[nH]c2cc1C(=O)NCc1ccccc1C(F)(F)F', 'inhibition at 10 µM', '98%'),
  ('O=C(Nc1ccc(Br)cc1)c1cc2nc(Nc3c(Cl)cc(F)cc3Cl)[nH]c2cc1OCC(F)F', 'inhibition at 10 µM', '100%'),
  ('O=C(Nc1cc(C(F)(F)F)ccc1Cl)c1ccc2[nH]c(Nc3c(Cl)cccc3Cl)nc2c1', 'inhibition at 10 µM', '100%');

-- ask Which inhibition at 10 µM value belongs to Cn1c(Nc2c(Cl)cc(F)cc2Cl)nc2cc(C(=O)Nc3ccc(Br)cc3)ccc21 ?
-- reply 100%

-- ask Now consider Cn1c(Nc2c(Cl)cccc2Cl)nc2cc(C(=O)NCc3ncccc3C(F)(F)F)ccc21 and answer again.
-- reply 96%

-- ask Now consider CC(C)(C)[C@H]1CC[C@H](NC(=O)c2cc3nc(Nc4c(Cl)cccc4Cl)[nH]c3cc2F)CC1 and answer again.
-- reply 100%
